assay: Immunosuppressive activity in Balb/c mouse B cells assessed as inhibition of LPS-induced cell proliferation at 10 uM after 48 hrs by MTT assay relative to control; format: functional
Parameter inhibition at 10 µM: see the listing below.
measure name: inhibition at 10 µM (%)

>  <smiles structure>
CC(=O)Oc1cc(C)c2c(c1C)C[C@H]([C@@H](C)C(=O)OCc1cn(-c3ccc(CC#N)cc3)nn1)CC2

>  <quantitative readout>
58.8

$$$$
>  <smiles structure>
COc1ccc(-n2cc(COC(=O)[C@H](C)[C@@H]3CCc4c(C)cc(OC(C)=O)c(C)c4C3)nn2)cc1

>  <quantitative readout>
36.8

$$$$
>  <smiles structure>
CC(=O)Nc1ccc(-n2cc(COC(=O)[C@H](C)[C@@H]3CCc4c(C)cc(OC(C)=O)c(C)c4C3)nn2)cc1

>  <quantitative readout>
31.3

$$$$
>  <smiles structure>
CC(=O)Oc1cc(C)c2c(c1C)C[C@H]([C@@H](C)C(=O)OCc1cn(-c3ccccc3F)nn1)CC2

>  <quantitative readout>
34.6

$$$$

---

organism: Mus musculus; assay: Cytotoxicity against Balb/c mouse B cells assessed as decrease in cell viability at 10 uM after 48 hrs by MTT assay; type: toxicity, cell-based

>  <smiles structure>
CC(=O)Oc1cc(C)c2c(c1C)C[C@H]([C@@H](C)C(=O)OCc1cn(-c3cccnc3Cl)nn1)CC2

>  <Activity>
Toxic

$$$$
>  <smiles structure>
CC(=O)Oc1cc(C)c2c(c1C)C[C@H]([C@@H](C)C(=O)OCc1cn(-c3ccc(CC#N)cc3)nn1)CC2

>  <Activity>
Toxic

$$$$
>  <smiles structure>
CC(=O)Oc1cc(C)c2c(c1C)C[C@H]([C@@H](C)C(=O)OCc1cn(-c3cc(I)ccc3C)nn1)CC2

>  <Activity>
Toxic

$$$$
>  <smiles structure>
CC(=O)Oc1cc(C)c2c(c1C)C[C@H]([C@@H](C)C(=O)OCc1cn(-c3ccc(Cl)c(Cl)c3)nn1)CC2

>  <Activity>
Toxic

$$$$
>  <smiles structure>
COc1cc(-n2cc(COC(=O)[C@H](C)[C@@H]3CCc4c(C)cc(OC(C)=O)c(C)c4C3)nn2)cc(OC)c1OC

>  <Activity>
Toxic

$$$$
>  <smiles structure>
CC(=O)Oc1cc(C)c2c(c1C)C[C@H]([C@@H](C)C(=O)OCc1cn(-c3ccccc3F)nn1)CC2

>  <Activity>
Non-Toxic

$$$$
>  <smiles structure>
COc1ccc(-n2cc(COC(=O)[C@H](C)[C@@H]3CCc4c(C)cc(OC(C)=O)c(C)c4C3)nn2)cc1

>  <Activity>
Non-Toxic

$$$$
>  <smiles structure>
CC(=O)Oc1cc(C)c2c(c1C)C[C@H]([C@@H](C)C(=O)OCc1cn(-c3ccccc3Cl)nn1)CC2

>  <Activity>
Toxic

$$$$
>  <smiles structure>
CC1=C2[C@H]3OC(=O)[C@@H](C)[C@@H]3CC[C@@]2(C)C=CC1=O

>  <Activity>
Non-Toxic

$$$$
>  <smiles structure>
CC(=O)Oc1cc(C)c2c(c1C)C[C@H]([C@@H](C)C(=O)OCc1cn(-c3ccc(C#N)cc3)nn1)CC2

>  <Activity>
Toxic

$$$$
>  <smiles structure>
CC(=O)Oc1cc(C)c2c(c1C)C[C@H]([C@@H](C)C(=O)OCc1cn(-c3ccc(O)cc3C)nn1)CC2

>  <Activity>
Non-Toxic

$$$$
>  <smiles structure>
CC(=O)Oc1cc(C)c2c(c1C)C[C@H]([C@@H](C)C(=O)OCc1cn(-c3ccc(O)cc3)nn1)CC2

>  <Activity>
Toxic

$$$$
>  <smiles structure>
CC(=O)Oc1cc(C)c2c(c1C)C[C@H]([C@@H](C)C(=O)OCc1cn(-c3ccc(Cl)nc3)nn1)CC2

>  <Activity>
Toxic

$$$$
>  <smiles structure>
CCCCCn1cc(COC(=O)[C@H](C)[C@@H]2CCc3c(C)cc(OC(C)=O)c(C)c3C2)nn1

>  <Activity>
Toxic

$$$$
>  <smiles structure>
CC(=O)Oc1cc(C)c2c(c1C)C[C@H]([C@@H](C)C(=O)OCc1cn(-c3cccc(C#N)c3)nn1)CC2

>  <Activity>
Non-Toxic

$$$$
>  <smiles structure>
CC(=O)Oc1cc(C)c2c(c1C)C[C@H]([C@@H](C)C(=O)OCc1cn(-c3ccc(NC(=O)c4ccccc4)cc3)nn1)CC2

>  <Activity>
Toxic

$$$$
>  <smiles structure>
CC(=O)Oc1cc(C)c2c(c1C)C[C@H]([C@@H](C)C(=O)OCc1cn(Cc3ccccc3)nn1)CC2

>  <Activity>
Non-Toxic

$$$$
>  <smiles structure>
COc1ccccc1-n1cc(COC(=O)[C@H](C)[C@@H]2CCc3c(C)cc(OC(C)=O)c(C)c3C2)nn1

>  <Activity>
Non-Toxic

$$$$
>  <smiles structure>
CC(=O)Oc1cc(C)c2c(c1C)C[C@H]([C@@H](C)C(=O)OCc1cn(-c3ccc(C(=O)c4ccccc4)cc3)nn1)CC2

>  <Activity>
Toxic

$$$$
>  <smiles structure>
CC(=O)Oc1cc(C)c2c(c1C)C[C@H]([C@@H](C)C(=O)OCc1cn(-c3ccccc3CO)nn1)CC2

>  <Activity>
Toxic

$$$$
>  <smiles structure>
CC(=O)Oc1cc(C)c2c(c1C)C[C@H]([C@@H](C)C(=O)O)CC2

>  <Activity>
Toxic

$$$$
>  <smiles structure>
CC(=O)Nc1ccc(-n2cc(COC(=O)[C@H](C)[C@@H]3CCc4c(C)cc(OC(C)=O)c(C)c4C3)nn2)cc1

>  <Activity>
Toxic

$$$$
>  <smiles structure>
CC(=O)Oc1cc(C)c2c(c1C)C[C@H]([C@@H](C)C(=O)OCc1cn(-c3ccccc3C#N)nn1)CC2

>  <Activity>
Toxic

$$$$
>  <smiles structure>
CC(=O)Oc1cc(C)c2c(c1C)C[C@H]([C@@H](C)C(=O)OCc1cn(-c3cccc([N+](=O)[O-])c3)nn1)CC2

>  <Activity>
Toxic

$$$$
>  <smiles structure>
CC(=O)Oc1cc(C)c2c(c1C)C[C@H]([C@@H](C)C(=O)OCc1cn(Cc3ccc(Br)cc3)nn1)CC2

>  <Activity>
Toxic

$$$$
>  <smiles structure>
CC(=O)Oc1cc(C)c2c(c1C)C[C@H]([C@@H](C)C(=O)OCc1cn(-c3ccc4c(c3)OCO4)nn1)CC2

>  <Activity>
Toxic

$$$$
>  <smiles structure>
C#CCOC(=O)[C@H](C)[C@@H]1CCc2c(C)cc(OC(C)=O)c(C)c2C1

>  <Activity>
Toxic

$$$$
>  <smiles structure>
CCCCn1cc(COC(=O)[C@H](C)[C@@H]2CCc3c(C)cc(OC(C)=O)c(C)c3C2)nn1

>  <Activity>
Toxic

$$$$
>  <smiles structure>
CC(=O)Oc1cc(C)c2c(c1C)C[C@H]([C@@H](C)C(=O)OCc1cn(-c3ccc(CO)cc3)nn1)CC2

>  <Activity>
Toxic

$$$$
>  <smiles structure>
CC(=O)Oc1cc(C)c2c(c1C)[C@@H]1OC(=O)[C@@H](C)[C@@H]1CC2

>  <Activity>
Toxic

$$$$
>  <smiles structure>
CC(=O)Oc1cc(C)c2c(c1C)C[C@H]([C@@H](C)C(=O)OCc1cn(-c3ccc(Cl)cc3)nn1)CC2

>  <Activity>
Non-Toxic

$$$$

---

test: Immunosuppressive activity in Balb/c mouse T cells assessed as inhibition of ConA-induced cell proliferation at 100 uM after 48 hrs by MTT assay relative to control; type: functional
Class True: inhibition at 100 µM at least 30%. Class False: inhibition at 100 µM below 30%.

>  <smiles structure>
CC(=O)Oc1cc(C)c2c(c1C)C[C@H]([C@@H](C)C(=O)OCc1cn(-c3ccc(CO)cc3)nn1)CC2

>  <class assignment>
False

$$$$
>  <smiles structure>
CC(=O)Oc1cc(C)c2c(c1C)[C@@H]1OC(=O)[C@@H](C)[C@@H]1CC2

>  <class assignment>
True

$$$$
>  <smiles structure>
CC(=O)Oc1cc(C)c2c(c1C)C[C@H]([C@@H](C)C(=O)OCc1cn(-c3ccc(Cl)nc3)nn1)CC2

>  <class assignment>
False

$$$$
>  <smiles structure>
CC(=O)Oc1cc(C)c2c(c1C)C[C@H]([C@@H](C)C(=O)OCc1cn(-c3ccc(Cl)c(Cl)c3)nn1)CC2

>  <class assignment>
False

$$$$
>  <smiles structure>
CC(=O)Oc1cc(C)c2c(c1C)C[C@H]([C@@H](C)C(=O)OCc1cn(-c3ccc(O)cc3C)nn1)CC2

>  <class assignment>
True

$$$$
>  <smiles structure>
CC(=O)Oc1cc(C)c2c(c1C)C[C@H]([C@@H](C)C(=O)OCc1cn(-c3cccnc3Cl)nn1)CC2

>  <class assignment>
False

$$$$
>  <smiles structure>
CC(=O)Oc1cc(C)c2c(c1C)C[C@H]([C@@H](C)C(=O)OCc1cn(-c3cccc(C#N)c3)nn1)CC2

>  <class assignment>
True

$$$$
>  <smiles structure>
CC(=O)Oc1cc(C)c2c(c1C)C[C@H]([C@@H](C)C(=O)OCc1cn(-c3ccc(NC(=O)c4ccccc4)cc3)nn1)CC2

>  <class assignment>
True

$$$$
>  <smiles structure>
CC(=O)Oc1cc(C)c2c(c1C)C[C@H]([C@@H](C)C(=O)OCc1cn(-c3ccc(Cl)cc3)nn1)CC2

>  <class assignment>
False

$$$$
>  <smiles structure>
CC(=O)Oc1cc(C)c2c(c1C)C[C@H]([C@@H](C)C(=O)OCc1cn(-c3ccc(C#N)cc3)nn1)CC2

>  <class assignment>
True

$$$$
>  <smiles structure>
CC(=O)Oc1cc(C)c2c(c1C)C[C@H]([C@@H](C)C(=O)OCc1cn(-c3ccccc3CO)nn1)CC2

>  <class assignment>
True

$$$$
>  <smiles structure>
C#CCOC(=O)[C@H](C)[C@@H]1CCc2c(C)cc(OC(C)=O)c(C)c2C1

>  <class assignment>
True

$$$$
>  <smiles structure>
CC(=O)Nc1ccc(-n2cc(COC(=O)[C@H](C)[C@@H]3CCc4c(C)cc(OC(C)=O)c(C)c4C3)nn2)cc1

>  <class assignment>
True

$$$$
>  <smiles structure>
CC(=O)Oc1cc(C)c2c(c1C)C[C@H]([C@@H](C)C(=O)OCc1cn(-c3ccc(CC#N)cc3)nn1)CC2

>  <class assignment>
True

$$$$
